# target or test system: HLA B*4001 (human)
# protocol summary: peptide-HLA binding, inhibition of radiolabeled probe
Below: a set of entries, each annotated with reported pIC50.
Please keep in mind that pIC50 is minus log10 of the molar concentration; only the number is needed.

Consider the reported pIC50 for these binders:
[
  {
    "binder": "GEFRLRGEQR",
    "pIC50": 5.85
  },
  {
    "binder": "REIPERSWNT",
    "pIC50": 5.83
  },
  {
    "binder": "SEMAEALKGM",
    "pIC50": 6.21
  }
]

Query binder follows.
Hello, please tell me recorded pIC50 for this one: `QEGAMHSAL`
7.80
